Let's look at some compounds and their measured inhibition.
system: Proto-oncogene tyrosine-protein kinase receptor Ret (Homo sapiens), P07949 [V804L]; conditions: at 1 µM
Sequence (P07949 whole entry V804L): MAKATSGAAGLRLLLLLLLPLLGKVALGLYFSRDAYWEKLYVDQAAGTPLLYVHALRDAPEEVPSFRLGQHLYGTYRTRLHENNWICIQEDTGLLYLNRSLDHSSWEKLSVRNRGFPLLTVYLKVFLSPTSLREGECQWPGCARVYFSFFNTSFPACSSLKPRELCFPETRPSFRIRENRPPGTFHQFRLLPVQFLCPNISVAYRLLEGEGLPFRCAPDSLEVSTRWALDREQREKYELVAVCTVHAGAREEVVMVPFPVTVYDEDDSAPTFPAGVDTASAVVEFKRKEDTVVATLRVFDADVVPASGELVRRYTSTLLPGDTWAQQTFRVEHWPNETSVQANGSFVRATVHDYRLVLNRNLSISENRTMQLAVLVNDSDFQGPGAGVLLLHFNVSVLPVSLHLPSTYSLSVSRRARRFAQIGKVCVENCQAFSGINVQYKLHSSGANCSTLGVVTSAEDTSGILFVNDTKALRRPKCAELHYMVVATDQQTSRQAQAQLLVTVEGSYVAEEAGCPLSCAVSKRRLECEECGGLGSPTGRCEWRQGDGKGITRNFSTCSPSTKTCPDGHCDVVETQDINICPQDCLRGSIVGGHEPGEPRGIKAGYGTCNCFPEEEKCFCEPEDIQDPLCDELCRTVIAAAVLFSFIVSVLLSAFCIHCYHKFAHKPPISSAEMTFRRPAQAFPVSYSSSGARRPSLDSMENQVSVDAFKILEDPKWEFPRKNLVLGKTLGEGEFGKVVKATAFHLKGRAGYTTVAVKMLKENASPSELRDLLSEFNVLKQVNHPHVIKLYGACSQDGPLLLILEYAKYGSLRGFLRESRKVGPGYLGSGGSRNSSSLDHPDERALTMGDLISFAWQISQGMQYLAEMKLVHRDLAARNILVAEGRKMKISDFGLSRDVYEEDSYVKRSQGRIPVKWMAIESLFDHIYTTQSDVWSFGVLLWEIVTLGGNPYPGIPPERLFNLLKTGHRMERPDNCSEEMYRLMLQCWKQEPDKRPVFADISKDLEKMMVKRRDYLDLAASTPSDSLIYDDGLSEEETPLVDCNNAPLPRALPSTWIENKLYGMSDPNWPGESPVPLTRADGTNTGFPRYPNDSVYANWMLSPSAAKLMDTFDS

sample-smiles	inhibition, %
N#Cc1c(NC(=O)c2ccc(F)cc2)sc2c1CCCC2	2.29
COc1ccc(-c2nn3ncccc3c2-c2ccnc(Nc3ccc4c(c3)OCCO4)n2)cc1	3.4
COc1cc2c(cc1Nc1nc(Nc3ccsc3C(N)=O)c3cc[nH]c3n1)N(C(=O)CN(C)C)CCC2(C)C	38.1

* * *

target: Tyrosine-protein kinase Tec (Homo sapiens) (UniProt P42680); details: at 1 µM;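 also: each value is the mean of the inhibition measurements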
Sequence (P42680 whole entry): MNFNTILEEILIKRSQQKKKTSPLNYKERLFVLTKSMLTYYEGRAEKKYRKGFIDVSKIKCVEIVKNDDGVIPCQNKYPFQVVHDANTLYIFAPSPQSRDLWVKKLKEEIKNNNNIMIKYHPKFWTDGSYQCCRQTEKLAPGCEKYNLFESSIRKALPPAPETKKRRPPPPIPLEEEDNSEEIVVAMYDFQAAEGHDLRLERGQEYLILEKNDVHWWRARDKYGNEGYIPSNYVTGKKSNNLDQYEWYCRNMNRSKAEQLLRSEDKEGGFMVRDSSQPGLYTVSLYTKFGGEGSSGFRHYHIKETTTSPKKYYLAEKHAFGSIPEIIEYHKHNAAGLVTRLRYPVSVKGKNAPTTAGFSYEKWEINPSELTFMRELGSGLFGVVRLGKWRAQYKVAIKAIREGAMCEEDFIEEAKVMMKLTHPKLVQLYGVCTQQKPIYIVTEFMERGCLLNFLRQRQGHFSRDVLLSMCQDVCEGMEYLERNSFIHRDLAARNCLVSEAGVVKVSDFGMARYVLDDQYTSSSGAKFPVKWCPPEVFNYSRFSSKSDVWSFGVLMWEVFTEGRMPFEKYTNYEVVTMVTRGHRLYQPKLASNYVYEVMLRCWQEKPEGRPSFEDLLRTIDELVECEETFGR
Listed next: entries and their corresponding inhibition.

compound	inhibition (%)
Cc1cccc2c1NC(=O)/C2=N\Nc1ccc(S(N)(=O)=O)cc1	7.22
Nc1ncc(-c2cccc(S(N)(=O)=O)c2)c2scc(-c3ccc(F)c(Cl)c3)c12	75.2
CCN1CCC(CC(=O)Nc2n[nH]c3nnc(-c4cccc(F)c4F)cc23)CC1	2.99
NS(=O)(=O)c1ccc(N/N=C2\C(=O)Nc3ccc4ncccc4c32)cc1	38.3
c1ccc(-c2nc3n(c2-c2ccc4c(c2)OCO4)CCC3)nc1	0.69
Nc1nc(-c2cccc(Cl)c2)c(-c2ccc3ncccc3n2)s1	5.26
CC1=C(C(=O)Nc2cc(Cl)c3[nH]ncc3c2)C(c2ccc(C(F)(F)F)cc2)CC(=O)N1 (stereo not drawn)	6.05
CCn1c(-c2nonc2N)nc2c(C#CC(C)(C)O)ncc(OC3CCNCC3)c21	3.33
CCn1cc(-c2ccnc3[nH]ccc23)c(-c2cccc(NC(=O)Nc3ccc(OCc4ccccc4)cc3)c2)n1	0.98
Nc1nc(-c2ccc(F)cc2)c(-c2ccc3ncccc3n2)s1	6.46
c1cc(-c2cnn3nc(N4CCOCC4)ccc23)nc(NC2CC2)n1	8.36
CC(=O)Nc1cccc(C#Cc2cncnc2Nc2ccc(OCc3cccc(F)c3)c(Cl)c2)c1	8.88
CC(=O)NCc1cccc(C#Cc2cncnc2Nc2ccc(OCc3cccc(F)c3)c(Cl)c2)c1	0.89

* * *

molecular target: Aurora kinase B (Homo sapiens); details: at 1 µM;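 also: reported percent inhibition is a mean value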

sample-smiles	target-desc	inhibition [%]
O=C(O[C@H]1CN[C@H](C#Cc2cc3ncnc(Nc4ccc(Cc5ccccc5)cc4)c3s2)C1)N1CCOCC1	Aurora kinase B (Homo sapiens)	2.04
COc1cc2ncn(-c3cc(OCc4ccccc4C(F)(F)F)c(C(=O)N(C)C)s3)c2cc1OC	Aurora kinase B (Homo sapiens)	31.1
Nc1nc(-c2cccc(Cl)c2)c(-c2ccc3ncccc3n2)s1	Aurora kinase B (Homo sapiens)	5.58
CC(=O)NCc1cccc(C#Cc2cncnc2Nc2ccc(OCc3cccc(F)c3)c(Cl)c2)c1	Aurora kinase B (Homo sapiens)	6.3
CCN1CCC(CC(=O)Nc2n[nH]c3nnc(-c4cccc(F)c4F)cc23)CC1	Aurora kinase B (Homo sapiens)	4.4
CCCN1CCC(c2ccc(Nc3nc(Nc4cc(F)ccc4C(N)=O)c4cc[nH]c4n3)c(OC)c2)CC1	Aurora kinase B (Homo sapiens)	3.04
CCn1cc(-c2ccnc3[nH]ccc23)c(-c2cccc(NC(=O)Nc3ccc(OCc4ccccc4)cc3)c2)n1	Aurora kinase B (Homo sapiens)	14.1
CC(C)COC(=O)c1ccc2c(c1)/C(=C/Nc1ccc(S(N)(=O)=O)cc1)C(=O)N2	Aurora kinase B (Homo sapiens)	48
CCN(CC)S(=O)(=O)c1ccc(OC)c(Nc2ncc(-c3ccccc3)o2)c1	Aurora kinase B (Homo sapiens)	4.64
CC(=O)Nc1cccc(C#Cc2cncnc2Nc2ccc(OCc3cccc(F)c3)c(Cl)c2)c1	Aurora kinase B (Homo sapiens)	5.28
Fc1ccc(-c2cc(-c3c[nH]nc3-c3ccccn3)ccn2)cc1	Aurora kinase B (Homo sapiens)	5.17
NC(=O)c1sc(-n2cnc3ccc(C(F)(F)F)cc32)cc1OCc1ccccc1Br	Aurora kinase B (Homo sapiens)	5.43
COc1cccc(-c2c[nH]c3c(N/N=C/c4ccncc4)ncnc23)c1	Aurora kinase B (Homo sapiens)	55.4
COc1ccc2[nH]c3c4[nH]c5ccc(OC)cc5c4c4c(c3c2c1)C(=O)NC4=O	Aurora kinase B (Homo sapiens)	66.9
COC(=O)Nc1nc2ccc(Oc3ccc(NC(=O)Nc4cccc(Cl)c4)cc3)cc2[nH]1	Aurora kinase B (Homo sapiens)	22.7
